Attribution: ChEMBL document CHEMBL1961873

# Measured on: Homeodomain-interacting protein kinase 4 (Homo sapiens)
# Run conditions: at 1 µM;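 also: values are mean percent inhibition of HIPK4 from the GSK PKIS kinase screen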
inhibition reference
Form entry: value (%) — number only.

# annotated cases, reported inhibition shown
>  <Smiles record>
CCn1c(-c2nonc2N)nc2c(C#CC(C)(C)O)nc(OC[C@H](N)c3ccccc3)cc21

>  <inhibition (%)>
6.13

$$$$
>  <Smiles record>
NC(=O)c1sc(-n2cnc3ccc(C(F)(F)F)cc32)cc1OCc1ccccc1Br

>  <inhibition (%)>
4.18

$$$$
>  <Smiles record>
COc1ccc(-c2cc3c(N)ncnc3o2)cc1

>  <inhibition (%)>
16.5

$$$$
>  <Smiles record>
COc1cc(Nc2nccc(Nc3ccc4c(C)n[nH]c4c3)n2)cc(OC)c1OC

>  <inhibition (%)>
3.91

$$$$
>  <Smiles record>
c1ccc(COc2ccc(Nc3ncnc4ccc(-c5ccco5)cc34)cc2)cc1

>  <inhibition (%)>
1.89

$$$$
>  <Smiles record>
Cc1cccc(Nc2ncc(-c3ccccc3)o2)c1

>  <inhibition (%)>
8.11

$$$$
>  <Smiles record>
CCCN(CCS(C)(=O)=O)Cc1ccc(-c2ccc3ncnc(Nc4ccc(OCc5cccc(F)c5)c(Cl)c4)c3c2)o1

>  <inhibition (%)>
9.25

$$$$
>  <Smiles record>
COc1cccc(-n2ncc3c(N/N=C/c4ccc(F)cc4)ncnc32)c1

>  <inhibition (%)>
20.9

$$$$
>  <Smiles record>
CS(=O)(=O)CCNCc1coc(-c2ccc3ncnc(Nc4ccc(OCc5ccccc5)cc4)c3c2)c1

>  <inhibition (%)>
8.92

$$$$
>  <Smiles record>
Fc1cccc(COc2ccc(Nc3ncnc4sc(-c5ccco5)cc34)cc2Cl)c1

>  <inhibition (%)>
5.88

$$$$

Enquiry: Quick one: inhibition of CNC(=O)c1cccc(C#Cc2cncnc2Nc2ccc(OCc3cccc(F)c3)c(Cl)c2)c1 ?
Return: 4.65

Enquiry: Quick one: inhibition of CNC(=O)c1cncc(/C=C/c2ccccc2Cl)c1 ?
Return: 1.63

Enquiry: Quick one: inhibition of N#Cc1c(NC(=O)c2ccc(F)cc2)sc2c1CCCC2 ?
Return: -0.61

Enquiry: Quick one: inhibition of CC(C)COC(=O)c1ccc2c(c1)/C(=C/Nc1ccc(S(N)(=O)=O)cc1)C(=O)N2 ?
Return: 16.9

Enquiry: Quick one: inhibition of CCc1nn2ncccc2c1-c1ccnc(NC2CC2)n1 ?
Return: 20.9
